system: human MDR1 P-gp; test: Assessment of efflux in MDCK cells transfected with the human MDR1 gene; type: in vitro ADME, canine; conditions: dog, apical-to-basal, pH 7.4, 37° C., read-out: MDCK-PGP A-B
EXPERIMENTAL_READOUT: Papp A→B (×10⁻⁶ cm/s)

Cc1nnn(-c2ccc(C(F)F)cn2)c1COc1ccc(-c2ccc(C#N)s2)nn1 [Example 12] :: 51
Cc1nnn(-c2ccc(C(F)F)cn2)c1COc1ccc(-c2cnccn2)nn1 [Example 56] :: 58
Cc1nnn(-c2ccc(C(F)F)cn2)c1COc1ccc(-c2cn[nH]c2)nn1 [Example 4] :: 57
CNc1cccc(-c2ccc(OCc3c(C)nnn3-c3ccc(C(F)F)cn3)nn2)n1 [Example 14] :: 55

----------
target: α5ß2 γ2 GABAA Receptor (Homo sapiens, UniProt P18507+P31644); experiment: Assay B: in vitro evaluation of modulation of α5ß2γ2 GABAA receptor, two-electrode voltage clamp in oocytes; assay type: cell-based
Sequence (P31644 32-462): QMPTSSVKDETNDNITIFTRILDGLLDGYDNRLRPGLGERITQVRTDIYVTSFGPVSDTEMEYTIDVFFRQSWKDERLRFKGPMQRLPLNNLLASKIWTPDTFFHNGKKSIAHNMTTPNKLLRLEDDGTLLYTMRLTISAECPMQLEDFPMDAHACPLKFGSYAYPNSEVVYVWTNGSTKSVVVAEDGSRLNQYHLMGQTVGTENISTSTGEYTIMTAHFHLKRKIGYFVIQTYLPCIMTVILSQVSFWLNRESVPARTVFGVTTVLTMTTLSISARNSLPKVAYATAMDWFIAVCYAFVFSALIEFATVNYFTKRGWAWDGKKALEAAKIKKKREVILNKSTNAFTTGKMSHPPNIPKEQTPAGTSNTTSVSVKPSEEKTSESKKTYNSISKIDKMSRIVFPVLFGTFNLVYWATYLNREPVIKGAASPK
Sequence (P18507 40-376 limits assumed): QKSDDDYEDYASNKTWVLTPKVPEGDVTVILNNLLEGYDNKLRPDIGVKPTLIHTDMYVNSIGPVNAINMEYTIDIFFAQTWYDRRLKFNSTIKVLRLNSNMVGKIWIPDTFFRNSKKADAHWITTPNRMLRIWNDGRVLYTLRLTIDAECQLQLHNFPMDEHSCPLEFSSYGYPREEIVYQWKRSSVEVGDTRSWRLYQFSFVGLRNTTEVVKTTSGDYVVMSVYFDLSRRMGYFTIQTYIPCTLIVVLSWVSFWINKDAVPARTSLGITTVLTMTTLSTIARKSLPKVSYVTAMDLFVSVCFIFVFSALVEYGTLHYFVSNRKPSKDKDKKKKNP
EXPERIMENTAL_READOUT: Assay B: GABAA α 5 β 3 γ 2 Emax vs GABA (%)

Cn1nnc(-c2ccc(C(F)F)cn2)c1COc1ccc(-c2cn[nH]c2)nn1 [Example 24] :: -14.7
CNc1cccc(-c2ccc(OCc3c(C)nnn3-c3ccc(C(F)F)cn3)nn2)n1 [Example 14] :: -21
Cc1n[nH]c(C)c1-c1ccc(OCc2c(C)nnn2-c2ccc(C(F)F)cn2)nn1 [Example 15] :: -24.7
Cc1c(-c2ccc(OCc3c(-c4ccc(C(F)F)cn4)nnn3C)nn2)cc(C#N)n1C [Example 29] :: -29

1. Cc1nnn(-c2ccc(C(F)F)cn2)c1COc1ccc(-n2nccn2)nn1 [Example 43]
2. CSc1ccc(-c2ccc(OCc3c(C)nnn3-c3ccc(C(F)F)cn3)nn2)cn1 [Example 10]
3. Cc1nnn(-c2ccc(C(F)F)cn2)c1COc1ccc(-c2cc[nH]n2)nn1 [Example 5]
Q: Parameters: sort_field (Assay B: GABAA α 5 β 3 γ 2 Emax vs GABA), sort_dir (desc). Output the labels ranked as instructed.
Result: 2, 1, 3

A. Cc1cc(-c2ccc(OCc3c(C)nnn3-c3ccc(C(F)F)cn3)nn2)cnn1 [Example 3]
B. Cc1nnn(-c2ccc(C(F)F)cn2)c1COc1ccc(-c2cccc(C(N)=O)c2)nn1 [Example 6]
Q: Parameter metric = Assay B: GABAA α 5 β 3 γ 2 Emax vs GABA. Return the lower-valued option from A and B . Selection: enter the item's label.
Result: A
(A: -24.7%, B: -8.8%)

a. Cc1nnn(-c2ccc(C(F)F)cn2)c1COc1ccc(-n2cc(C#N)cn2)nn1 [Example 37]
b. Cc1nnn(-c2ccc(C(F)F)cn2)c1COc1ccc(-c2cnccn2)nn1 [Example 56]
Q: Parameter metric = Assay B: GABAA α 5 β 3 γ 2 Emax vs GABA. Return the lower-valued option from a and b . Selection: enter the item's label.
Result: a
(a: -25.3%, b: -17.7%)

The reported numbers originate from patent US20230286946A1.
